conditions: in 1,4-dioxane, 308.15 K
propertyMeasured: solubility (mole fraction)

[
  {
    "cpdSmiles": "Nc1cccc(C(=O)O)c1",
    "observedResult": 0.0469
  }
]

---

conditions: in isobutanol, 303.15 K

[
  {
    "cpdSmiles": "Nc1cccc(C(=O)O)c1",
    "solubility (mole fraction)": 0.00796
  }
]

---

conditions: in n-propanol, 283.15 K

[
  {
    "cpdSmiles": "Nc1cccc(C(=O)O)c1",
    "solubility (mole fraction)": 0.00568
  }
]

---

details: in water, 308.15 K

[
  {
    "cpdSmiles": "Nc1cccc(C(=O)O)c1",
    "solubility (mole fraction)": 0.00119
  }
]

Values compiled from BigSolDB 2.1.
